Below, each entry is listed alongside its reported RBD binding of 2nd Ab after 1st Ab (heat map).
# experimentalTarget: T1, SARS-CoV-2 receptor binding domain (RBD), wild type, His-tagged (SARS-CoV-2, UniProt P0DTC2 319-541)
# T1 construct: domain: RBD; also called His-tagged RBD; BEI NR52309
# assayProcedure: BLI competition on His-tagged RBD, after 1st Ab 298
Respond numerically, and do not add a unit to the figure.

The following binders have reported results that may help.
>>> measurement("mAb 46 (antibody, V domains shown, also called IgG 46; Antibody 46) VH: EVQLLESGGGLVQPGRSLRLSCAASGFTFSSYAMSWVRQAPGKGLEWVSTIYSGGSTYYADSVKGRFTISRDNSKNTLYLQMNSLRAEDTAVYYCARGDSRDAFDIWGQGTMVTVSS VL: DIQMTQSPSSLSASVGDRVTITCRASQSISSWLAWYQQKPGKAPKLLIYDASNLETGVPSRFSGSGSGTDFTLTISSLQPEDFATYYCQQSYSTPFTFGPGTKVDIKR")
1.7
>>> measurement("mAb 324 (antibody, V domains shown, also called IgG 324; Antibody 324) VH: QVQLVQSGAEVKKPGASVKVSCKASGGTFNNYGISWVRQAPGQGLEWMGWMNPNSGNTGYAQKFQGRVTMTRDTSTSTVYMELSSLRSEDTAVYYCARVGDYGDYIVSPFDLWGRGTLVTVSS VL: DIQMTQSPSSLSASVGDRVTITCRASQSITTYLNWYQQKPGKAPKLLIYDASNLETGVPSRFSGSGSGTDFTLTISSLQPEDFATYYCQQSYSTPPTFGQGTKVEIKR")
0.2
>>> measurement("mAb 52 (antibody, V domains shown, also called IgG 52; Antibody 52) VH: QVQLVQSGAEVKKPGSSVKVSCKASGYTFTSYGISWVRQAPGQGLEWMGGIIPMFGTTNYAQKFQGRVTITADKSTSTAYMELSSLRSEDTAVYYCARDRGDTIDYWGQGTLVTVSS VL: DIQMTQSPSSLSASVGDRVTITCRASQGISNNLNWYQQKPGKAPKLLIYAASSLESGVPSRFSGSGSGTDFTLTISSLQPEDFATYYCQQGNGFPLTFGPGTKVDIKR")
1.4

Now for a further binder.
GET /value?item= mAb 82 (antibody, V domains shown, also called IgG 82; Antibody 82) VH: QVQLVQSGAEVKKPGASVKVSCKASGGSFSTSAFYWVRQAPGQGLEWMGWINPYTGGTNYAQKFQGRVTMTRDTSTSTVYMELSSLRSEDTAVYYCARSRALYGSGSYFDYWGQGTLVTVSS VL: DIQMTQSPSSLSASVGDRVTITCRASQVISNYLAWYQQKPGKAPKLLIYDASNLETGVPSRFSGSGSGTDFTLTISSLQPEDFATYYCQQSFSPPPTFGQGTRLEIKR &field=RBD binding of 2nd Ab after 1st Ab (heat map) returns 0.5
